Data origin: PubChem BioAssay AID493168

Target: Ubiquitin carboxyl-terminal hydrolase 2 (Homo sapiens)
Assay: Confirmation Assay for Inhibitors of Ubiquitin-specific Protease USP2a Using CHOP2 as the Reporter; further: nearly all actives have a fitted effect of over 55% in size; further: potency means the concentration at half of the fitted maximal effect
Conditions: USP2 core, Ub-CHOP2 coupled reporter fluorescence; series mostly up to 38.3 µM
Inconclusive results are not listed. Calls of active or inactive are those of the source. The call rests on the fitted dose curve; in most records, active means well fitted inhibition curve with a large enough effect; inconclusive means small, poorly fitted or top-dose-only effect, or effect the other way; inactive means flat fitted curve, though single readings scatter.
readout-label: Potency

Check out these entries, answers already filled in.
compound=O=c1[nH]c(=S)n(Cc2ccco2)c(O)c1C=NCc1cccs1 target_desc="Ubiquitin carboxyl-terminal hydrolase 2 (Homo sapiens)" recorded_value=inactive
compound=NC(N)=N/N=C/c1ccc(N(c2ccccc2)c2ccccc2)cc1 target_desc="Ubiquitin carboxyl-terminal hydrolase 2 (Homo sapiens)" recorded_value="16.5 µM (active)"
compound=COc1ccc(S(=O)(=O)Cc2ccc(C(=O)N3CCC4(CC3)OCCO4)o2)cc1 target_desc="Ubiquitin carboxyl-terminal hydrolase 2 (Homo sapiens)" recorded_value=inactive
compound=O=C1NC(=S)N(c2ccccc2)C(=O)/C1=C/c1ccco1 target_desc="Ubiquitin carboxyl-terminal hydrolase 2 (Homo sapiens)" recorded_value="14.7 µM (active)"
compound=O=C1NC(=O)N(Cc2ccco2)C(=O)/C1=C/c1cccn1CCOc1ccccc1Cl target_desc="Ubiquitin carboxyl-terminal hydrolase 2 (Homo sapiens)" recorded_value=inactive

Lookup: Consider the compound `O=C1NC(=O)N(Cc2ccco2)C(=O)/C1=C/C=C/c1ccco1` and give its measured Potency.
Found: 13.1 µM (active)

Lookup: Then what about the compound `O=c1[nH]c(=O)n(Cc2ccc(F)cc2)c(O)c1C=NCCCn1ccnc1` ?
Found: inactive

Lookup: Try this compound next: CC1Oc2cc3c(-c4c(O)cc(O)c5c(O)c6c(cc45)OC(C)C(C)C6=O)c(O)cc(O)c3c(O)c2C(=O)C1C (configuration not stated)
Found: 13.1 µM (active)

Lookup: Next up: CCCC1=C(C(=O)OCC)C2(C(=O)Nc3ccc(C)cc32)C(C#N)=C(N)O1 (configuration not stated)
Found: inactive

Lookup: Entry Nc1ccc(S(=O)(=O)N2CCCCC2c2cccnc2)cc1 (configuration not stated) please
Found: inactive

Lookup: Next entry: `FC(F)(F)c1ccc2c(c1)N(CCCN1CCN(CCCl)CC1)c1ccccc1S2`
Found: inactive

Lookup: Then this compound: `O=C1CC(=O)N(Cc2ccccc2)C(=O)N1CCCCCCN1C(=O)CC(=O)N(Cc2ccccc2)C1=O`
Found: inactive
